Origin of values: ChEMBL document CHEMBL1150976

Documented Activity across a set of compounds
- ASSAY_SYSTEM: MAP kinase-interacting serine/threonine-protein kinase 2 (Homo sapiens)
- MEASUREMENT_PROTOCOL: Percentage MNK2 activity remaining in the presence of 0.1uM inhibitor
Report the figure in % without appending any unit label.

Problem: Look at this compound and give its reported Activity. "CN(C)C[C@@H]1CCn2cc(c3ccccc32)C2=C(C(=O)NC2=O)c2cn(c3ccccc23)CCO1"
Result: 101

Problem: Now give it for "Cn1cc(C2=C(c3cn(CCCSC(=N)N)c4ccccc34)C(=O)NC2=O)c2ccccc21" too.
Result: 103

Problem: Now give it for "Cc1n[nH]c2ccc(-c3cncc(OC[C@@H](N)Cc4c[nH]c5ccccc45)c3)cc12" too.
Result: 80

Problem: Now give it for "CC(C)[C@H](CO)Nc1nc(Nc2cccc(Cl)c2)c2ncn(C(C)C)c2n1" too.
Result: 98

Problem: Now give it for CC(C)CCN1c2nc(Nc3cc(F)c(O)c(F)c3)ncc2N(C)C(=O)C1C (stereo not given) too.
Result: 96

* * *

- ASSAY_SYSTEM: Calcium/calmodulin-dependent protein kinase kinase 2 (Homo sapiens) (UniProt Q96RR4)
- Sequence (Q96RR4 2-588 limits assumed): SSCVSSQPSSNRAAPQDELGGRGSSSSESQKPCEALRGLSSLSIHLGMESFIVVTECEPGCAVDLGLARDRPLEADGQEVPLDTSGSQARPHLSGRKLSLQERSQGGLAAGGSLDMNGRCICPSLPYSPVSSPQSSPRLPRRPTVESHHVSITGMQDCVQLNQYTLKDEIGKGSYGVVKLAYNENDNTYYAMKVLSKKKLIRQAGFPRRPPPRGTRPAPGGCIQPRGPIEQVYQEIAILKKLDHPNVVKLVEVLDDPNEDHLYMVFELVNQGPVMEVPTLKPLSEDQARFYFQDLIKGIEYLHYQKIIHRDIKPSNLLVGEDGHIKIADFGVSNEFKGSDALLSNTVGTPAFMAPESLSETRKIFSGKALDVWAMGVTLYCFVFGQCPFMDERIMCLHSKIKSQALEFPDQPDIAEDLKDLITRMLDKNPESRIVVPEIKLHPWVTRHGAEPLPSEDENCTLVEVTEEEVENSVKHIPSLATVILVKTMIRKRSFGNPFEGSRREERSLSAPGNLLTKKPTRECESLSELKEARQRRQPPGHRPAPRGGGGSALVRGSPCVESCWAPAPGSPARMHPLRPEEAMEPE
- MEASUREMENT_PROTOCOL: Percentage CaMKKbeta activity remaining in the presence of 0.1uM inhibitor
READOUT_NAME: Activity (%)
Report the figure in % without appending any unit label.

Reference set (3 entries):
CN(C)C[C@@H]1CCn2cc(c3ccccc32)C2=C(C(=O)NC2=O)c2cn(c3ccccc23)CCO1
53
CC(C)[C@H](CO)Nc1nc(Nc2cccc(Cl)c2)c2ncn(C(C)C)c2n1
60
CC(C)CCN1c2nc(Nc3cc(F)c(O)c(F)c3)ncc2N(C)C(=O)C1C (centres undefined)
73

Turning now to a further compound:
Problem: Look at this compound and give its reported Activity. "Cn1cc(C2=C(c3cn(CCCSC(=N)N)c4ccccc34)C(=O)NC2=O)c2ccccc21"
Result: 65

* * *

- Organism: Rattus norvegicus
- MEASUREMENT_PROTOCOL: Percentage AMPK activity remaining in the presence of 0.1uM inhibitor
READOUT_NAME: Activity (%)
Report the figure in % without appending any unit label.

CC(C)CCN1c2nc(Nc3cc(F)c(O)c(F)c3)ncc2N(C)C(=O)C1C (stereo not given)
108
Cc1n[nH]c2ccc(-c3cncc(OC[C@@H](N)Cc4c[nH]c5ccccc45)c3)cc12
67
Cn1cc(C2=C(c3cn(CCCSC(=N)N)c4ccccc34)C(=O)NC2=O)c2ccccc21
84
CN(C)C[C@@H]1CCn2cc(c3ccccc32)C2=C(C(=O)NC2=O)c2cn(c3ccccc23)CCO1
71

Problem: Look at this compound and give its reported Activity. "CC(C)[C@H](CO)Nc1nc(Nc2cccc(Cl)c2)c2ncn(C(C)C)c2n1"
Result: 89

* * *

- ASSAY_SYSTEM: Serine/threonine-protein kinase N2 (Homo sapiens) (UniProt Q16513)
- Sequence (Q16513 whole entry, looked up): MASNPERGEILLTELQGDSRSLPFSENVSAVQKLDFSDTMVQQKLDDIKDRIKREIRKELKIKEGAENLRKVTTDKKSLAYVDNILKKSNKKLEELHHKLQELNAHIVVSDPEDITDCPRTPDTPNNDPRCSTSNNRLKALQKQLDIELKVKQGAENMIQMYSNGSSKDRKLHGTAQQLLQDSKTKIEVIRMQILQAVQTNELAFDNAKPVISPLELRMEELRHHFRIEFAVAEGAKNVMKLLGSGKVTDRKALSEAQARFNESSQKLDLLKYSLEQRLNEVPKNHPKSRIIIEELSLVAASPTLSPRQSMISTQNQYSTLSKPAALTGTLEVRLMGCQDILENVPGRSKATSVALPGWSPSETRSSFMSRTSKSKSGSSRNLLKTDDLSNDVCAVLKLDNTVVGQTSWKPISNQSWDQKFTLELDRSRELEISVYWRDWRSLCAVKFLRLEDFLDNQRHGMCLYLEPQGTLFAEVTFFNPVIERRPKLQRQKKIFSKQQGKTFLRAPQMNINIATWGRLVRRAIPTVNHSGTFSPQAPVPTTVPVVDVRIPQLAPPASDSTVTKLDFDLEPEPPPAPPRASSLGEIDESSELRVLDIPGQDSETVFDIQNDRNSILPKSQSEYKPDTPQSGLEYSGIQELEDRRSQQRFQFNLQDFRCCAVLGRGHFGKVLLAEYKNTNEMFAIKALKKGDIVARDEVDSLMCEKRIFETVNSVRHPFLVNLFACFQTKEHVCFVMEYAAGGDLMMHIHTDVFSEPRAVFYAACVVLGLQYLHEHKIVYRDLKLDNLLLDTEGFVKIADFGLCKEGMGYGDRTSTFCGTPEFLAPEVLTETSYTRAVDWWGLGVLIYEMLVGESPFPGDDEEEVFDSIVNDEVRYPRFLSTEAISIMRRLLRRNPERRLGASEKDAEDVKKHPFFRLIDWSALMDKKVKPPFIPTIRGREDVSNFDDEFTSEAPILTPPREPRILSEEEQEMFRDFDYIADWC
- MEASUREMENT_PROTOCOL: Percentage PRK2 activity remaining in the presence of 0.1uM inhibitor
- ASSAY_CONTEXT: filed as antagonist
READOUT_NAME: Activity

Cc1n[nH]c2ccc(-c3cncc(OC[C@@H](N)Cc4c[nH]c5ccccc45)c3)cc12
2%
CN(C)C[C@@H]1CCn2cc(c3ccccc32)C2=C(C(=O)NC2=O)c2cn(c3ccccc23)CCO1
38%
O=C(NCCCNc1nc(Nc2cccc(NC(=O)N3CCCC3)c2)ncc1I)c1cccs1
43%

Problem: # get_value(readout= Activity, system= Serine/threonine-protein kinase N2 (Homo sapiens) (UniProt Q16513)) for "Cn1c2ccccc2c2c3c(c4c5ccccc5n(CCC#N)c4c21)CNC3=O"
Result: 5%

Problem: Now give it for "Cn1cc(C2=C(c3cn(CCCSC(=N)N)c4ccccc34)C(=O)NC2=O)c2ccccc21" too.
Result: 8%

* * *

Documented IC50 across a set of compounds
- ASSAY_SYSTEM: UniProtKB P00523
- MEASUREMENT_PROTOCOL: Inhibition of Src in the presence of 50uM ATP

Problem: Look at this compound and give its reported IC50. "Cc1ccc(-c2c(C(=O)CF)n(CCCO)c3ncnc(N)c23)cc1"
Result: 560 nM (antagonist)

Problem: Now give it for "CC(C)(C)n1nc(-c2cccc3ccccc23)c2c(N)ncnc21" too.
Result: 340 nM (antagonist)

Problem: Now give it for "CN(C)S(=O)(=O)c1ccc2c(c1)/C(=C/c1cc3c([nH]1)CCCC3)C(=O)N2" too.
Result: 100 nM (antagonist)

Problem: Now give it for "COc1cc2ncnc(Nc3ccc(Oc4ccccc4)cc3)c2cc1OC" too.
Result: 180 nM (antagonist)

* * *

- Species on record: Homo sapiens
- MEASUREMENT_PROTOCOL: Percentage PHK activity remaining in the presence of 0.1uM inhibitor
Documented Activity across a set of compounds
Report the figure in % without appending any unit label.

Reference set (2 entries):
CC(C)CCN1c2nc(Nc3cc(F)c(O)c(F)c3)ncc2N(C)C(=O)C1C (centres undefined)
114
Cc1n[nH]c2ccc(-c3cncc(OC[C@@H](N)Cc4c[nH]c5ccccc45)c3)cc12
54

Problem: Look at this compound and give its reported Activity. "O=C(NCCCNc1nc(Nc2cccc(NC(=O)N3CCCC3)c2)ncc1I)c1cccs1"
Result: 62

Problem: Now give it for "CC(C)[C@H](CO)Nc1nc(Nc2cccc(Cl)c2)c2ncn(C(C)C)c2n1" too.
Result: 85

* * *

- ASSAY_SYSTEM: Serine/threonine-protein kinase pim-3 (Homo sapiens, UniProt Q86V86)
- MEASUREMENT_PROTOCOL: Percentage PIM3 activity remaining in the presence of 0.1uM inhibitor
- ASSAY_CONTEXT: filed as antagonist
READOUT_NAME: Activity (%)
Report the figure in % without appending any unit label.

Problem: Look at this compound and give its reported Activity. "CN(C)C[C@@H]1CCn2cc(c3ccccc32)C2=C(C(=O)NC2=O)c2cn(c3ccccc23)CCO1"
Result: 5

Problem: Now give it for "Cn1cc(C2=C(c3cn(CCCSC(=N)N)c4ccccc34)C(=O)NC2=O)c2ccccc21" too.
Result: 16

Problem: Now give it for "Cn1c2ccccc2c2c3c(c4c5ccccc5n(CCC#N)c4c21)CNC3=O" too.
Result: 7

Problem: Now give it for "Cc1n[nH]c2ccc(-c3cncc(OC[C@@H](N)Cc4c[nH]c5ccccc45)c3)cc12" too.
Result: 13

* * *

- ASSAY_SYSTEM: Homeodomain-interacting protein kinase 2 (Homo sapiens) (UniProt Q9H2X6)
- Sequence (Q9H2X6 whole entry, looked up): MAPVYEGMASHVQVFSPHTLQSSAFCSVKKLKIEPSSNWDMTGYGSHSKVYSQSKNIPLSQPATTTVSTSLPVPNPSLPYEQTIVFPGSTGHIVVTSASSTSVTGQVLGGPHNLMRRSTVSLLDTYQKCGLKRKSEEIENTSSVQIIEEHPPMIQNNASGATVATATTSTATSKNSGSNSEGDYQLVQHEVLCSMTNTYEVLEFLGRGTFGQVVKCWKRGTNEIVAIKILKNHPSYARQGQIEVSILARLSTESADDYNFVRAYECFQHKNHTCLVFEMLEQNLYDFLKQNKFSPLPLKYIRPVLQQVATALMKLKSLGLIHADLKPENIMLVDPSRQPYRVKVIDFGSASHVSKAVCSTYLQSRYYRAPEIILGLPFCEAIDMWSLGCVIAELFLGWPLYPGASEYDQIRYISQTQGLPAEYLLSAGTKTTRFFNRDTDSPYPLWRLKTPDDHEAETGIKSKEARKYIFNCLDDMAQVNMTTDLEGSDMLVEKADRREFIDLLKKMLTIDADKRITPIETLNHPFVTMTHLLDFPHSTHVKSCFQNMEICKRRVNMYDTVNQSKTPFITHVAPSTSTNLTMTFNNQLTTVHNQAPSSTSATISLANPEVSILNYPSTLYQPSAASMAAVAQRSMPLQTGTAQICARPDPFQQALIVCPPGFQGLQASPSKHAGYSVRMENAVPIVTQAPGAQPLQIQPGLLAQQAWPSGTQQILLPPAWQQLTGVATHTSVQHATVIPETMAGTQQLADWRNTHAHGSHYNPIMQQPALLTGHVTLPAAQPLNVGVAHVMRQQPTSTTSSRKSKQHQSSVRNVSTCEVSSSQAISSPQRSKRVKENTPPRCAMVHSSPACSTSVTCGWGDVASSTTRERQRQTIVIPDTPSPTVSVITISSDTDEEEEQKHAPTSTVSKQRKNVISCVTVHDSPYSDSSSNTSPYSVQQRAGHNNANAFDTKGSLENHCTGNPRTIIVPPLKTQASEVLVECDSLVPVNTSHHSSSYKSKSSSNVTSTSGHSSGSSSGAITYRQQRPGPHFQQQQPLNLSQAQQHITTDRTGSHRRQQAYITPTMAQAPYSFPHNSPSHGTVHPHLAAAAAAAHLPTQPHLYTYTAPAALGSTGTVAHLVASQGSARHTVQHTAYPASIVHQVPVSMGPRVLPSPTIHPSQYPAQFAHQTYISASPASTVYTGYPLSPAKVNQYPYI
- MEASUREMENT_PROTOCOL: Percentage HIPK2 activity remaining in the presence of 0.1uM inhibitor
Documented Activity across a set of compounds
Report the figure in % without appending any unit label.

Reference set (4 entries):
Cn1c2ccccc2c2c3c(c4c5ccccc5n(CCC#N)c4c21)CNC3=O
63
O=C(NCCCNc1nc(Nc2cccc(NC(=O)N3CCCC3)c2)ncc1I)c1cccs1
101
CN(C)C[C@@H]1CCn2cc(c3ccccc32)C2=C(C(=O)NC2=O)c2cn(c3ccccc23)CCO1
63
Cn1cc(C2=C(c3cn(CCCSC(=N)N)c4ccccc34)C(=O)NC2=O)c2ccccc21
88

Turning now to a further compound:
Problem: Look at this compound and give its reported Activity. CC(C)CCN1c2nc(Nc3cc(F)c(O)c(F)c3)ncc2N(C)C(=O)C1C (stereo not given)
Result: 103

* * *

- ASSAY_SYSTEM: Mitogen-activated protein kinase 3 (Homo sapiens) (UniProt P27361)
- Sequence (P27361 whole entry): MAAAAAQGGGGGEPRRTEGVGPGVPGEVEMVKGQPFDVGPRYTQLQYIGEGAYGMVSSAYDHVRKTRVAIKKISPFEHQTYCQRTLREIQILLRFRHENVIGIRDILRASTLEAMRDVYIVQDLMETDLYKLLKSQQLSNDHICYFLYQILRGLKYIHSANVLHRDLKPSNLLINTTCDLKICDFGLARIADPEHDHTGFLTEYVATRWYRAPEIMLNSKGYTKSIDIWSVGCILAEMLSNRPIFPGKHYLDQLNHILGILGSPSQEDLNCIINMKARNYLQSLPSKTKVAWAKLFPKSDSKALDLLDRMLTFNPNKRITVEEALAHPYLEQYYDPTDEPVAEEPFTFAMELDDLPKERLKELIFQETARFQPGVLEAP
- MEASUREMENT_PROTOCOL: Percentage ERK1 activity remaining in the presence of 0.1uM inhibitor
Documented Activity across a set of molecules
Report the figure in % without appending any unit label.

Reference set (3 entries):
CC(C)CCN1c2nc(Nc3cc(F)c(O)c(F)c3)ncc2N(C)C(=O)C1C (stereo unspecified)
115
Cc1n[nH]c2ccc(-c3cncc(OC[C@@H](N)Cc4c[nH]c5ccccc45)c3)cc12
59
O=C(NCCCNc1nc(Nc2cccc(NC(=O)N3CCCC3)c2)ncc1I)c1cccs1
66

Problem: Look at this molecule and give its reported Activity. CC(C)[C@H](CO)Nc1nc(Nc2cccc(Cl)c2)c2ncn(C(C)C)c2n1 [PURVALANOLA]
Result: 95

Problem: Now give it for "CN(C)C[C@@H]1CCn2cc(c3ccccc32)C2=C(C(=O)NC2=O)c2cn(c3ccccc23)CCO1" too.
Result: 84

Problem: Now give it for "Cn1cc(C2=C(c3cn(CCCSC(=N)N)c4ccccc34)C(=O)NC2=O)c2ccccc21" too.
Result: 88

* * *

- ASSAY_SYSTEM: Serine/threonine-protein kinase Chk2 (Homo sapiens) (UniProt O96017)
- Sequence (O96017 whole entry): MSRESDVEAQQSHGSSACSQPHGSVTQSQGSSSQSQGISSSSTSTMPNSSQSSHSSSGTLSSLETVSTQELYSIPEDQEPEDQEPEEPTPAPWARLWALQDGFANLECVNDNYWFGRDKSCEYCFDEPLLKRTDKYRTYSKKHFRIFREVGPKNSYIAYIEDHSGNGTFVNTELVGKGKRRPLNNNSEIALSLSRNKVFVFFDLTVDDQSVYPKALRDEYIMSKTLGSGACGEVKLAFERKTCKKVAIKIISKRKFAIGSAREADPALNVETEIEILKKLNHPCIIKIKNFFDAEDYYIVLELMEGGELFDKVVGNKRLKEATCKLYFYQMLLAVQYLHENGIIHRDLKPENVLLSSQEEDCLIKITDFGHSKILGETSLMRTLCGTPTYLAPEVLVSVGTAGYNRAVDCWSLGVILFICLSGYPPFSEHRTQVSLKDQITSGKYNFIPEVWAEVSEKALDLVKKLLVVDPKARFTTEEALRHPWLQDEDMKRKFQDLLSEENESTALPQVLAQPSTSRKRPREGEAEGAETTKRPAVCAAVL
- MEASUREMENT_PROTOCOL: Percentage CHK2 activity remaining in the presence of 0.1uM inhibitor
READOUT_NAME: Activity (%)
Report the figure in % without appending any unit label.

Reference set (4 entries):
Cc1n[nH]c2ccc(-c3cncc(OC[C@@H](N)Cc4c[nH]c5ccccc45)c3)cc12
95
Cn1cc(C2=C(c3cn(CCCSC(=N)N)c4ccccc34)C(=O)NC2=O)c2ccccc21
99
CC(C)[C@H](CO)Nc1nc(Nc2cccc(Cl)c2)c2ncn(C(C)C)c2n1
94
CC(C)CCN1c2nc(Nc3cc(F)c(O)c(F)c3)ncc2N(C)C(=O)C1C (stereo not given)
96

Problem: Look at this compound and give its reported Activity. "CN(C)C[C@@H]1CCn2cc(c3ccccc32)C2=C(C(=O)NC2=O)c2cn(c3ccccc23)CCO1"
Result: 92
